Test: Binding constant at vancomycin was measured using affinity capillary electrophoresis-MS.
pKd: −log10 of the molar value. Peptide text beside a SMILES is read from it. * marks the point of attachment. Fmoc = O=C(OCC1c2ccccc2-c2ccccc21)*
measured quantity: pKd

Example results:
[
  {
    "compound": "C[C@H](NC(=O)[C@H](Cc1ccc(O)cc1)NC(=O)[C@H](CCCCN)NC(=O)[C@H](CC(=O)O)NC(=O)OCC1c2ccccc2-c2ccccc21)C(=O)O (Fmoc-DKYA-OH)",
    "measured quantity": "pKd",
    "endpoint value": 4.92
  },
  {
    "compound": "C[C@H](NC(=O)[C@H](Cc1ccc(O)cc1)NC(=O)[C@H](C)NC(=O)[C@H](CC(=O)O)NC(=O)OCC1c2ccccc2-c2ccccc21)C(=O)O (Fmoc-DAYA-OH)",
    "measured quantity": "pKd",
    "endpoint value": 5.09
  },
  {
    "compound": "C[C@H](NC(=O)[C@H](Cc1ccc(O)cc1)NC(=O)CNC(=O)[C@H](CC(=O)O)NC(=O)OCC1c2ccccc2-c2ccccc21)C(=O)O (Fmoc-DGYA-OH)",
    "measured quantity": "pKd",
    "endpoint value": 4.68
  }
]

(1) CC[C@@H](C)[C@H](NC(=O)[C@H](CC(=O)O)NC(=O)OCC1c2ccccc2-c2ccccc21)C(=O)N[C@@H](Cc1ccc(O)cc1)C(=O)N[C@@H](C)C(=O)O
(2) C[C@H](NC(=O)[C@H](Cc1ccc(O)cc1)NC(=O)[C@H](Cc1ccc(O)cc1)NC(=O)[C@H](CC(=O)O)NC(=O)OCC1c2ccccc2-c2ccccc21)C(=O)O (Fmoc-DYYA-OH)
Min pKd? 1 | 2 Returns: label corresponding to the selected item.
1
